Attribution: the RNAGym collection of RNA variant scans (doi:10.1093/molbev/msab373)

B1: Azoarcus group I ribozyme (parent)
chain: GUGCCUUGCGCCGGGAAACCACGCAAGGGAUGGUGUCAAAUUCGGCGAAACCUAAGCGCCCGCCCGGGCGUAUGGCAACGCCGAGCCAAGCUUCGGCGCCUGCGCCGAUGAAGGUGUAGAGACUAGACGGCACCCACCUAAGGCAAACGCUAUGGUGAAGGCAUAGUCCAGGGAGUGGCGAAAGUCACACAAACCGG

variants of: B1; assay: reverse-splicing fitness (ratio to wild type); higher = more active; in vitro selection; Mg2+ level not given
reverse-splicing fitness by entry:
outcome-measure: reverse-splicing fitness

>>> test_value("C82U A111U A120U C150U U176C")
0.0088
>>> test_value("C82U A111G A120G A145C C150U C169U U176C")
0.0091
>>> test_value("C82G A111C A120C C150G C169G U176A")
0.00891
>>> test_value("C82U A111G A120G A145G C150G C169A")
0.00895
>>> test_value("C82A A111G A120G A145C C150U C169G")
0.00885
